Biological target: T1, cynomolgus monkey PVRIG on FlpinCHO-cyno PVRIG cells (cynomolgus monkey, UniProt A0A2K5WVV8 41-322)
T1 construct: whole, on cells
T1 sequence: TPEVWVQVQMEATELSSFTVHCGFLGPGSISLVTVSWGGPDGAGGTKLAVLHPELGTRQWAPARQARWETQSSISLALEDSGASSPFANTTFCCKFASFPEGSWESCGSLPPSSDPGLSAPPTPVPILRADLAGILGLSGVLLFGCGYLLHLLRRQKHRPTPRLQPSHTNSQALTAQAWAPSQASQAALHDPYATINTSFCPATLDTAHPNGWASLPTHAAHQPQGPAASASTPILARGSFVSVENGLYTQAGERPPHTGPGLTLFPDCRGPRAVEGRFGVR
Test: FACS, FlpinCHO-cyno PVRIG cells
Method: The antibodies were diluted from the highest concentration of 46 nM (two-fold concentration) with staining buffer by 3.3-fold serial dilution. The diluted antibodies were added to the well containing 50 μL of cell suspension. […] After staining, the cells were washed twice with staining buffer, finally resuspended with 200 μL staining buffer and analyzed by flow cytometry (BD, Canto II). […] The AUC value of the curve was calculated by using a Four Parameter Logistic Fit (GraphPadPrism9). […]
Measured AUC % to SRF813-hIgG1 values are reported for all entries that follow.
The answer consists of two parts: a number and, after it, its unit.

Use the examples below as a reference point.
{"Binder": "PVRIG-A50-H1a (Fc fusion, humanized variant of PVRIG-A50; also called A50.VH1a; not shown: constant part not restated for the humanized forms; parents are VHH-hinge-CH2-CH3 of human IgG1; detected by anti-human) EVQLVESGGGLVQPGGSLRLSCAASGFTFSYYDMSWVRQAPGKGLEWVSTINSDGGRTSYVDSVKGRFTISRDNSKNTLYLQMNSLRAEDTAVYYCVEGDPHNFGLENLSLRDFGSWGQGTMVTVSS", "AUC % to SRF813-hIgG1": "50%"}
{"Binder": "PVRIG-A118-H5 (Fc fusion, humanized variant of PVRIG-A118; also called A118.VH5; not shown: constant part not restated for the humanized forms; parents are VHH-hinge-CH2-CH3 of human IgG1; detected by anti-human) EVQLVESGGGLVQPGGSLRLSCAASETYFDLYVMGWYRQAPGKDRELVATITYTGSIKYVDSVKGRFTISRGDAKNSVYLQMNSLRAEDTAVYYCNADPSGLGRKVYWGQGTMVTVSS", "AUC % to SRF813-hIgG1": "26.6%"}

Item: PVRIG-A118-H3 (Fc fusion, humanized variant of PVRIG-A118; also called A118.VH3; not shown: constant part not restated for the humanized forms; parents are VHH-hinge-CH2-CH3 of human IgG1; detected by anti-human) EVQLVESGGGLVQPGGSLRLSCAASETYFDLYVMGWYRQAPGKDRELVATITYTGSIKYVDSVKGRFTISRGDAKNSLYLQMNSLRAEDTAVYYCNADPSGLGRKVYWGQGTMVTVSS | AUC % to SRF813-hIgG1: 25.6%

Item: PVRIG-A50-H1d (Fc fusion, humanized variant of PVRIG-A50; also called A50.VH1d; not shown: constant part not restated for the humanized forms; parents are VHH-hinge-CH2-CH3 of human IgG1; detected by anti-human) EVQLVESGGGLVQPGGSLRLSCAASGFTFSYYDMSWVRQAPGKGLEWVSTINSNGGRTSYVDSVKGRFTISRDNSKNTLYLQMNSLRAEDTAVYYCVEGDPHNFGLESLSLRDFGSWGQGTMVTVSS | AUC % to SRF813-hIgG1: 59.7%

Item: PVRIG-A105-H1 (Fc fusion, humanized variant of PVRIG-A105; also called A105.VH1; not shown: constant part not restated for the humanized forms; parents are VHH-hinge-CH2-CH3 of human IgG1; detected by anti-human) EVQLVESGGGLVQPGGSLRLSCAASGRTFDRHTMSWFRQAPGKEREFVATASRIPGDTYYVDSVKGRFTISRDNAKNSLYLQMNSLRAEDTAVYYCAATSAYCSEVDCYEKGSWYDNWGQGTMVTVSS | AUC % to SRF813-hIgG1: 101%

Item: PVRIG-A118-H4 (Fc fusion, humanized variant of PVRIG-A118; also called A118.VH4; not shown: constant part not restated for the humanized forms; parents are VHH-hinge-CH2-CH3 of human IgG1; detected by anti-human) EVQLVESGGGLVQPGGSLRLSCAASETYFDLYVMGWYRQAPGKDRELVATITYTGSIKYVDSVKGRFTISRGDAKNSLSLQMNSLRAEDTAVYYCNADPSGLGRKVYWGQGTMVTVSS | AUC % to SRF813-hIgG1: 26%

Item: PVRIG-A118-H2 (Fc fusion, humanized variant of PVRIG-A118; also called A118.VH2; not shown: constant part not restated for the humanized forms; parents are VHH-hinge-CH2-CH3 of human IgG1; detected by anti-human) EVQLVESGGGLVQPGGSLRLSCAASETYFDLYVMGWYRQAPGKDRELVATITYTGSIKYVDSVKGRFTISRDNAKNSLYLQMNSLRAEDTAVYYCNADPSGLGRKVYWGQGTMVTVSS | AUC % to SRF813-hIgG1: 17.8%

Item: PVRIG-A118-H1 (Fc fusion, humanized variant of PVRIG-A118; also called A118.VH1; not shown: constant part not restated for the humanized forms; parents are VHH-hinge-CH2-CH3 of human IgG1; detected by anti-human) EVQLVESGGGLVQPGGSLRLSCAASETYFDLYVMGWYRQAPGKDRELVATITYTGSIYYVDSVKGRFTISRDNAKNSLYLQMNSLRAEDTAVYYCNADPSGLGRKVYWGQGTMVTVSS | AUC % to SRF813-hIgG1: 14.1%
